# System under test: Nonstructural protein 3 (Zika virus, UniProt A0A024AXB9)
# Sequence (A0A024AXB9 whole entry): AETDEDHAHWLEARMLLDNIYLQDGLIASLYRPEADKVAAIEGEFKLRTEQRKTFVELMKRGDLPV
# Test summary: Functional biochemical assay to identify treatments for viral infectious disease that targets Zika NS2B-NS3 protease. Utilizing a direct enzyme activity measurement method, reading the fluorescence intensity is used to characterize the relative potency of inhibitors as IC50.
# Set-up: species or system PRVABC59
Reported IC50 values follow for various molecules

Sample answers from the record:
Lookup: Which measured IC50 value corresponds to CCn1cc(-c2cnn(-c3ccccc3)c2)nc(N2CC[C@@H](CO)C2)c1=O ?
Found: > 99.5 µM

Lookup: Which measured IC50 value corresponds to CC(C)(C)OC(=O)N1Cc2ccc(NC(=O)c3cc(Cl)cc4[nH]ncc34)cc2C1 ?
Found: > 25 µM

Lookup: Which measured IC50 value corresponds to CCn1cc(-c2ccccc2C(C)C)nc(N2CC[C@@H](CO)C2)c1=O ?
Found: > 99.5 µM

Lookup: Which measured IC50 value corresponds to O=C(Nc1ccc2c(c1)CNC2)c1cncc(-c2ccccc2)c1 ?
Found: 14.7 µM

Lookup: Which measured IC50 value corresponds to CCCC[C@H](NC(C)=O)C(=O)N[C@H](C(=O)NCc1ccc(CN)cc1)c1ccccc1 ?
Found: > 99.5 µM

New cases:
Lookup: Which measured IC50 value corresponds to Cc1ccc(-c2nnn[nH]2)cc1NC(=O)c1cc(Cl)cc(NC(=O)OCc2ccccc2)c1 ?
Found: 58.7 µM

* * *

# System under test: Nonstructural protein 3 (Zika virus, UniProt A0A024AXB9)
# Test summary: Functional biochemical assay to identify treatments for viral infectious disease that targets Zika NS2B-NS3 protease. Utilizing a direct enzyme activity measurement method, reading the fluorescence intensity is used to characterize the relative potency of inhibitors as IC50.
# Set-up: species or system PRVABC59
Metric name: IC50

Lookup: # query: IC50 | item Cc1nnc(CN2CCC([C@H](NC(=O)OCc3ccccc3)C(=O)Nc3cccc(CN)c3)CC2)s1 | system: Nonstructural protein 3 (Zika virus, UniProt A0A024AXB9)
Found: > 99.5 µM

New cases:
Lookup: # query: IC50 | item O=C(Nc1cc(Cl)cc(C(=O)Nc2n[nH]c3c2CNC3)c1)OCc1ccccc1 | system: Nonstructural protein 3 (Zika virus, UniProt A0A024AXB9)
Found: 40.3 µM

Lookup: # query: IC50 | item O=C(O)c1cc(Oc2ccc(F)cc2)c(F)cc1NS(=O)(=O)c1ccc(Oc2ccccc2Cl)cc1 | system: Nonstructural protein 3 (Zika virus, UniProt A0A024AXB9)
Found: 3.67 µM

Lookup: # query: IC50 | item CCOc1cc(N2CCN(C)CC2)ccc1NS(=O)(=O)c1ccc(Cl)cc1C(=O)O | system: Nonstructural protein 3 (Zika virus, UniProt A0A024AXB9)
Found: > 99.5 µM

* * *

Reported pIC50 values follow for various compounds
# System under test: Nonstructural protein 3 (Zika virus)
# Test summary: Functional biochemical assay to identify treatments for viral infectious disease that targets Zika NS2B-NS3 protease. Utilizing a direct enzyme activity measurement method, reading the fluorescence intensity is used to characterize the relative potency of inhibitors as IC50.
# Set-up: species or system PRVABC59
pIC50: −log10 of the molar value.

Sample answers from the record:
Lookup: Which measured pIC50 value corresponds to O=S(=O)(Nc1cccc(-c2nnn[nH]2)c1)c1cc(F)cc(Cl)c1 ?
Found: < 4.00

Lookup: Which measured pIC50 value corresponds to NCc1ccc(-c2ccc(OCC3CCNCC3)nc2-c2ccc(-c3ccoc3)cc2)cc1 ?
Found: 4.64

Lookup: Which measured pIC50 value corresponds to NC[C@H]1C[C@@H]1NC(=O)c1cc(Cl)cc(NC(=O)OCc2ccccc2)c1 ?
Found: 4.67

Lookup: Which measured pIC50 value corresponds to Cc1nc2c(C(=O)Nc3ccc4c(c3)CNC4)cc(Cl)cc2[nH]1 ?
Found: 6.93

Lookup: Which measured pIC50 value corresponds to O=C1Cc2c(cccc2C(=O)Nc2cc(Br)c3ncnn3c2)N1 ?
Found: < 4.60

Lookup: Which measured pIC50 value corresponds to c1coc(CSCc2nc(-c3nc[nH]n3)no2)c1 ?
Found: < 4.00

Lookup: Which measured pIC50 value corresponds to Nc1ccc(CNC(=O)[C@@H](NC(=O)OCc2ccccc2)c2ccc(OCc3ccccc3)cc2)nc1 ?
Found: < 4.00

Lookup: Which measured pIC50 value corresponds to CN(C)Cc1ccc(CNC(=O)[C@@H](NC(=O)OCc2ccccc2)c2ccc(OCc3ccccc3)cc2)cc1 ?
Found: < 4.00

Lookup: Which measured pIC50 value corresponds to Cc1ccc([C@H]2[C@H](C)CN2C(=O)c2ccc(C(F)(F)CN)cc2)cc1 ?
Found: < 4.00

Lookup: Which measured pIC50 value corresponds to O=C1CN(C(=O)Nc2ccc3c(c2)CNC3)[C@H]2CCCC[C@H]2N1 ?
Found: < 4.60

New cases:
Lookup: Which measured pIC50 value corresponds to c1ccc(COc2ccc3[nH]cc(CN4CCC(c5cscn5)CC4)c3c2)cc1 ?
Found: < 4.00

Lookup: Which measured pIC50 value corresponds to NCc1cccc(NC(=O)C2(CNC(=O)OCc3ccccc3)CCCC2)c1 ?
Found: < 4.00

Lookup: Which measured pIC50 value corresponds to O=C(Nc1cc(-c2cccnc2)ccn1)c1cc(C2CC2)no1 ?
Found: < 4.60

Lookup: Which measured pIC50 value corresponds to Cc1c(CN)cccc1NC(=O)c1cc(Cl)cc(NC(=O)OCc2ccccc2)c1 ?
Found: 4.35

Lookup: Which measured pIC50 value corresponds to NCc1cc(C=C2CC(C(=O)O)C2)cc(NC(=O)c2cc(Cl)cc(NC(=O)OCc3ccccc3)c2)c1 (configuration not stated) ?
Found: 5.03

Lookup: Which measured pIC50 value corresponds to Cc1c(C(=O)Nc2cccc(-c3nnn[nH]3)c2)cnn1-c1ccc(Cl)cc1 ?
Found: < 4.00

Lookup: Which measured pIC50 value corresponds to O=C(Nc1ccc2c(c1)OCCNC2)c1cc(Cl)cc2[nH]ncc12 ?
Found: 5.78

* * *

# System under test: Nonstructural protein 3 (Zika virus)
# Test summary: Functional biochemical assay to identify treatments for viral infectious disease that targets Zika NS2B-NS3 protease. Utilizing a direct enzyme activity measurement method, reading the fluorescence intensity is used to characterize the relative potency of inhibitors as IC50.
# Design: species or system PRVABC59
Metric name: IC50

Sample answers from the record:
Lookup: Which measured IC50 value corresponds to CC(C)c1cc(-c2ccc([C@@H](NC(=O)OCc3ccccc3)C(=O)Nc3cccc(CN)c3)cc2)on1 ?
Found: 24 µM

Lookup: Which measured IC50 value corresponds to C[C@@H]1CCC[C@H](C(=O)Nc2cccc(CN)c2)O1 ?
Found: > 99.5 µM

Lookup: Which measured IC50 value corresponds to CC(C)N1C(=O)C[C@H](C(=O)Nc2cccc(CN)c2)[C@H]1c1ccc(Cl)c(F)c1 ?
Found: > 99.5 µM

New cases:
Lookup: Which measured IC50 value corresponds to CCOCC(=O)N1CCC([C@H](NC(=O)OCc2ccccc2)C(=O)Nc2cccc(CN)c2)CC1 ?
Found: > 99.5 µM

* * *

# System under test: Nonstructural protein 3 (Zika virus, UniProt A0A024AXB9)
# Test summary: Functional biochemical assay to identify treatments for viral infectious disease that targets Zika NS2B-NS3 protease. Utilizing a direct enzyme activity measurement method, reading the fluorescence intensity is used to characterize the relative potency of inhibitors as IC50.
# Set-up: species or system PRVABC59
pIC50: −log10 of the molar value.
Reported pIC50 values follow for various compounds

Sample answers from the record:
Lookup: Which measured pIC50 value corresponds to COC[C@]1(c2nc3c(C(=O)Nc4ccc5c(c4)CNC5)cc(F)cc3[nH]2)CCOC1 ?
Found: 6.46

Lookup: Which measured pIC50 value corresponds to O=C(Cn1ccnc(N2CC[C@H](CO)C2)c1=O)NCc1cc[nH]n1 ?
Found: < 4.00

Lookup: Which measured pIC50 value corresponds to Cc1c(C(=O)Nc2ccc3c(c2)C[C@H](C(N)=O)O3)cc(C2CC2)n1C ?
Found: < 4.60

Lookup: Which measured pIC50 value corresponds to Cc1cc(NC(=O)c2cc(C3CC3)n(C)c2C)cnc1N1CCCCC1 ?
Found: < 4.60

Lookup: Which measured pIC50 value corresponds to NCc1cn(CCNC(=O)c2cc(Cl)cc(NC(=O)OCc3ccccc3)c2)nn1 ?
Found: < 4.00

New cases:
Lookup: Which measured pIC50 value corresponds to N#C[C@H](Nc1cccc(-c2nn[nH]n2)c1)c1cc(Cl)cc2[nH]ncc12 ?
Found: < 4.00

* * *

Reported pIC50 values follow for various compounds
# System under test: Nonstructural protein 3 (Zika virus, UniProt A0A024AXB9)
# Test summary: Functional biochemical assay to identify treatments for viral infectious disease that targets Zika NS2B-NS3 protease. Utilizing a direct enzyme activity measurement method, reading the fluorescence intensity is used to characterize the relative potency of inhibitors as IC50.
# Set-up: species or system PRVABC59
pIC50: −log10 of the molar value.

Lookup: Which measured pIC50 value corresponds to O=C(Nc1ccc2c(c1)CNC2)N1C[C@H](C2CC2)C[C@@H]1C1CC1 ?
Found: < 4.60

Lookup: Which measured pIC50 value corresponds to Cn1nc([C@@H]2CCCN2)nc1NC(=O)c1cc(Cl)cc(NC(=O)OCc2ccccc2)c1 ?
Found: < 4.00

Lookup: Which measured pIC50 value corresponds to O=C(Nc1ccc2c(c1)CNC2)c1cc(Cl)cc2c1CCC2 ?
Found: 6.80

Lookup: Which measured pIC50 value corresponds to CC1=C(c2cc(F)cc(C(=O)Nc3ccc4c(c3)CNC4)c2)CCCC1 ?
Found: < 4.60

Lookup: Which measured pIC50 value corresponds to COC(=O)c1cc(C(=O)Nc2ccc3c(c2)CNC3)cc2[nH]ccc12 ?
Found: < 4.60

New cases:
Lookup: Which measured pIC50 value corresponds to CC(C)[C@H]1C(=O)O[C@@H]1C(=O)O ?
Found: < 4.00

Lookup: Which measured pIC50 value corresponds to O=C(Nc1ccc2c(c1)C(=O)OC2)c1cccc(CC2CNC2)c1 ?
Found: < 4.60

Hello, the source for this data is ChEMBL document CHEMBL5604062, in case you need it.
